Test system: DU-145
protocol.notes: NCI tumour cell line growth inhibition, 48 h
Calls of active or inactive are those of the source. No stated cut-off is given here; in the data, active = GI50 up to about 1.1 µM and inactive = higher.
API: response.call in True = active, False = inactive

## Input Write down the call the test reported for this molecule. Item: Cn1c(=S)c2nc(SCCCc3ccccc3)[nH]c2n(C)c1=O
## Output False

## Input // next record CCCCCCCCCCCCCCCCCC(=O)OCC(COC1OC(CS(=O)(=O)O)C(O)C(O)C1O)OC(=O)CCCCCCCCCCCCCCCCC (stereo not given)
## Output False

## Input // next record C/C(=N\NC(=O)c1ccncc1)c1ccccc1Cl
## Output False

## Input // next record CSC1=Nc2ccccc2-c2nc3ccccc3cc2C1
## Output False

## Input // next record CC1CC/C(=C\c2ccc(F)cc2)C2=C1C(c1ccc(F)cc1)NC(=S)N2 (stereo not given)
## Output False

## Input // next record COc1ccc2nc3c([N+](=O)[O-])ccc4c3c(c2c1)N=CN4CCCN(C)C
## Output False

## Input // next record O=c1[nH]c(NCc2cccnc2)nc2[nH]cnc12
## Output False

## Input // next record Cc1ccc(C2(C)CC/C(=N/N=C3/CCC(C)(c4ccc(C)c(C)c4)c4cc(C)c(C)cc43)c3cc(C)c(C)cc32)cc1C (stereo not given)
## Output False

## Input // next record CN1/C(=C\N=O)C(C)(C)N(O)C1(C)C
## Output False

## Input // next record Cc1nn(C(=O)c2ccncc2)c2c1C(c1ccccc1O)SC(=N)N2 (stereo not given)
## Output False

## Input // next record COc1cc2c(cc1OCCCC(=O)Nc1cc(C(=O)Nc3cc(C(=O)Nc4cc(C(=O)NCCCN(C)C)n(C)n4)n(C)c3)n(C)c1)N=CC1CCCN1C2=O (stereo not given)
## Output False

## Input // next record CC(C)CC(C(N)=O)C(=O)NC(Cc1ccccc1)NC(=O)CNC(=O)C(C)NC(=O)C(N)Cc1ccc(O)cc1 (stereo not given)
## Output False

## Input // next record C/C(=N\NC(=S)N1CCN(C2CCCCCC2)CC1)c1ccccn1
## Output True

## Input // next record NCCN1CCCCCc2ccccc21
## Output False

## Input // next record COc1cc2c(cc1O)C1Cc3ccc(OC)c(O)c3C(C2)N1C (stereo not given)
## Output False

## Input // next record C=C1C[C@H](O)[C@H]2C(C[Se]c3ccccc3)C(=O)O[C@@H]2[C@H]2[C@H](C)C(O)C[C@@H]12 (stereo not given in full)
## Output False

## Input // next record CC(=O)NC(Cc1ccc(OP(=O)(OCc2ccc([N+](=O)[O-])o2)N(C)CCCCCl)cc1)C(=O)NC(C)c1ccc(OCC2CCCCC2)c(C(N)=O)c1 (stereo not given)
## Output False

## Input // next record CCN(CC)C(=O)CCN1CC1
## Output False

## Input // next record Cc1nc2[nH]ncn2c(=O)c1CCCl
## Output False

## Input // next record O=C(Cn1c2ccc(Br)cc2c2nc3ccccc3nc21)NNC(=O)NC1CCCCC1
## Output False

----------
System: UO-31
protocol.notes: NCI tumour cell line growth inhibition, 48 h
Activity calls are given as the source filed them. Cut-off read from the data, not from the text of the source: active = GI50 up to about 1.1 µM and inactive = higher. Starred links: 1 amine or outer side, 2 acyl side, 3 side chain; linkers in the order of their positions; H or OH if unused. Positions of bridges follow the written chain, without caps; N, C: chain ends. Non-standard residues stand in square brackets, D forms with d. Residues, ends and D or L forms follow the SMILES beside them. Chains are numbered I, II in the order given. Actinocin(9to1) = Cc1c2oc3c(C)ccc(C(=O)[*:1])c3nc-2c(C(=O)[*:2])c(N)c1=O; NMeV = CN[CH](C(=O)O)C(C)C; Sar = CNCC(=O)O
API: response.call in active, inactive

## Input Write down the call the test reported for this molecule. Item: CC(C)/C(Cl)=N\OC(=O)Nc1cccc(Cl)c1
## Output inactive

## Input // next record C/C(=N\NC(=S)N(C)CCN(C)C(=S)N/N=C(\C)c1ccccn1)c1ccccn1
## Output active

## Input // next record O=C1c2cccnc2-c2nccc3c2c1nc1ccccc13
## Output active

## Input // next record COc1ccc2cc(C(=O)NCCCNC(=O)c3ccc4c(OC)c(OC)ccc4c3)ccc2c1OC
## Output inactive

## Input // next record COc1ccc2[nH]c3c(C)c4cc[n+](COC(=O)c5ccccc5)cc4c(C)c3c2c1
## Output inactive

## Input // next record COc1ccc(S(=O)(=O)NNS(C)(=O)=O)cc1OC
## Output inactive

## Input // next record CC(=O)O[C@H]1CC[C@H]2[C@@H]3CCC4=C/C(=N/OCCN(C)C)CC[C@]4(C)[C@H]3CC[C@]12C
## Output inactive

## Input // next record Cc1c2oc3c(C)ccc(C(=O)NC4C(=O)NC(Cc5ccc(O)cc5)C(=O)N5CCCC5C(=O)N(C)CC(=O)N(C)C(C(C)C)C(=O)OC4C)c3nc-2c(C(=O)NC2C(=O)NC(Cc3ccc(O)cc3)C(=O)N3CCCC3C(=O)N(C)CC(=O)N(C)C(C(C)C)C(=O)OC2C)c(N)c1=O (centres undefined) (I: TYP[Sar][NMeV] / II: TYP[Sar][NMeV]; ester I:1-I:C, II:1-II:C; linker I:N-II:N via Actinocin(9to1); configuration not given here)
## Output inactive

## Input // next record NCCN1CCCCCc2ccccc21
## Output inactive
